# targetOfAssay: T1, Furin (recombinant, truncated) (mouse), P23188
# T1 chain: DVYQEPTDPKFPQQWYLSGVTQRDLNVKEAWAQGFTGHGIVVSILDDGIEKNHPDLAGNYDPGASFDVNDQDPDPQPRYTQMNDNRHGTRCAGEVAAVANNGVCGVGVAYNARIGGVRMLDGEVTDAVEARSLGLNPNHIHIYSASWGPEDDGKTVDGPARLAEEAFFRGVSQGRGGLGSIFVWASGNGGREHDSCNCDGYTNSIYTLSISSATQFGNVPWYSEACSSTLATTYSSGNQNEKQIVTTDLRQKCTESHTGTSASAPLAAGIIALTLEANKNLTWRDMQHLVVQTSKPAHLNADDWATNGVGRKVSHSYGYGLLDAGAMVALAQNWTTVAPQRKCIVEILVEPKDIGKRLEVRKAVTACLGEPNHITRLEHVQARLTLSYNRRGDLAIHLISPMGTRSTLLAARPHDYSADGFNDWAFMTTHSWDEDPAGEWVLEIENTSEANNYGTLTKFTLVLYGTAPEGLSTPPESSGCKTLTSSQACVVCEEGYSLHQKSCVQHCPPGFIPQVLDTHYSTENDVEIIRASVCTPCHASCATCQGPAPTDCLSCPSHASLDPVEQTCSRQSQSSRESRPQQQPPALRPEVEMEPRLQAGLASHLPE
# assayContext: modification not given
pKi: −log10 of the molar value.

{"binder": "Ac-HRKRRR-NH2 [Ac-HRKRRR-NH2]", "pKi": 5.68}
